Consider the following Ki data for 5-hydroxytryptamine receptor 1A (Homo sapiens), collected from several reports.
target: 5-hydroxytryptamine receptor 1A (Homo sapiens)
Sequence (P08908 whole entry): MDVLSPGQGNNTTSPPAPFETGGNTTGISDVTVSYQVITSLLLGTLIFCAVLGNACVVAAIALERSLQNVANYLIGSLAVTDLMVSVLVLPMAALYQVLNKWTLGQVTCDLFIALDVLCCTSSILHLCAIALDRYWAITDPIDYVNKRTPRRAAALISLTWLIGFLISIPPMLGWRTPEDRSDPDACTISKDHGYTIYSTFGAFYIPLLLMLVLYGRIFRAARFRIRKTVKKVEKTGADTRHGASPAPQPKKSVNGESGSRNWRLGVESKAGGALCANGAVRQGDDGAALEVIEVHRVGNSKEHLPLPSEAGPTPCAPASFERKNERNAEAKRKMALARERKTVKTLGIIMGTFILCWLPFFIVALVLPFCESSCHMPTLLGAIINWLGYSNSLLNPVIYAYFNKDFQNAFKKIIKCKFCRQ
Hi! Could you send only the number? It should be in nM, unit omitted.

- smiles representation: "Cn1c(=O)c2c(nc3n(CCCN4CCN(c5cccc(Cl)c5)CC4)c(=O)ccn23)n(C)c1=O"
  unit tag: "nM"
  Ki: 32.8
- smiles representation: "CCOC(=O)[C@@H]1CCCN(CCCC(C)(C)S(=O)(=O)c2ccccc2)C1"
  unit tag: "nM"
  Ki: 2400

Now for the molecule whose Ki we want.
// recorded Ki for "O=C1CC2(CCCC2)CC(=O)N1CCN1CCN(c2cc(F)c(F)cc2F)CC1" : 360
